Reported Kd values follow for various sequences
Target or system: HLA-B*54:01
Test protocol: IEDB peptide-MHC binding, purified MHC/competitive/radioactivity; filed as Kd, often an IC50 or EC50 that approximates it; bounds were set here for any values at or beyond the usual limits of such assays
Condition context: source organism: Triticum aestivum

# Entry sequence, Kd
rows = [
    ("QPLQQYPL", "≥ 87.7 µM"),
]

Read the next record carefully.
# Kd measured on HLA-B*54:01 for item `FPQPQLPY` = ≥ 87.7 µM

* * *

Target or system: HLA-A*03:01
Test protocol: IEDB peptide-MHC binding, purified MHC/direct/fluorescence; filed as Kd, often an IC50 or EC50 that approximates it; bounds were set here for any values at or beyond the usual limits of such assays
Condition context: source organism: Corynebacterium jeikeium
Assay metric: Kd (nM)
Express the result in nM but write the number alone.

Measured on HLA-A*03:01, `FMWAHPGKK` has a documented Kd of 39

* * *

Target or system: HLA-A*03:01
Test protocol: IEDB peptide-MHC binding, purified MHC/competitive/fluorescence; bounds were set here for any values at or beyond the usual limits of such assays
Condition context: source organism: Vaccinia virus Copenhagen
Assay metric: IC50 (µM)
Give the value in µM but do not write µM after it.

The sequence `KITFALKKL` showed IC50 equal to 11.3

* * *

Target or system: HLA-B*15:01
Test protocol: IEDB peptide-MHC binding, purified MHC/competitive/radioactivity; filed as Kd, often an IC50 or EC50 that approximates it; bounds were set here for any values at or beyond the usual limits of such assays
Condition context: source organism: Dengue virus 2 Jamaica/1409/1983
Assay metric: pKd
Please express pKd as -log10 of the molar concentration.

The recorded pKd for `AQMWTLMYF` is 9.14

* * *

Target or system: HLA-B*18:01
Test protocol: IEDB peptide-MHC binding, purified MHC/competitive/radioactivity; filed as Kd, often an IC50 or EC50 that approximates it; bounds were set here for any values at or beyond the usual limits of such assays
Condition context: source organism: SARS coronavirus Tor2
Assay metric: Kd (µM)
# value in µM; strip the unit string

A selection of reference data follows.
# Entry sequence, Target or system, Value reported
rows = [
    ("HEFVDEFYAY", "HLA-B*18:01", 0.0442),
    ("IEELFYSYA", "HLA-B*18:01", 3.96),
    ("FEHIVYGDF", "HLA-B*18:01", 1.26),
    ("AEIVDTVSA", "HLA-B*18:01", 8.19),
    ("TEVVGNVIL", "HLA-B*18:01", 5.87),
    ("FEIDKGIYQT", "HLA-B*18:01", 6.4),
    ("SEVAVLYQDV", "HLA-B*18:01", 3.11),
]

Lab note: sequence `AEVEWKFYDA` tested on HLA-B*18:01; recorded Kd was 1.54

* * *

Target or system: HLA-B*45:01
Test protocol: IEDB peptide-MHC binding, purified MHC/competitive/radioactivity; filed as Kd, often an IC50 or EC50 that approximates it; bounds were set here for any values at or beyond the usual limits of such assays
Condition context: source organism: Mammarenavirus juninense
Assay metric: Kd (nM)
Output spec: scalar in nM, unitless text.

Briefly, Kd measured for `AETGSQGVY` : 211

* * *

Target or system: HLA-A*23:01
Test protocol: IEDB peptide-MHC binding, purified MHC/competitive/radioactivity; filed as Kd, often an IC50 or EC50 that approximates it; bounds were set here for any values at or beyond the usual limits of such assays
Condition context: source organism: Lassa virus GA391
Assay metric: Kd (nM)
Form entry: value (nM) — number only.

Kd measured on `KDFKCFNLI` = 395

* * *

Target or system: HLA-B*15:17
Test protocol: IEDB peptide-MHC binding, purified MHC/direct/fluorescence; filed as Kd, often an IC50 or EC50 that approximates it; bounds were set here for any values at or beyond the usual limits of such assays
Condition context: source organism: Burkholderia thailandensis
Assay metric: pKd
Reminder that pKd is minus the log10 of a molar concentration.

Kindly note the recorded pKd for `MALATGLWW` , which is 9.40

* * *

Catalogue of pKd readings, one per entry.
Target or system: HLA-A*68:02
Test protocol: IEDB peptide-MHC binding, purified MHC/competitive/radioactivity; filed as Kd, often an IC50 or EC50 that approximates it; bounds were set here for any values at or beyond the usual limits of such assays
Condition context: source organism: Dengue virus 3 Martinique/1243/1999
Units for pKd: none; it is -log10 of a concentration expressed in mol/L.

Examples from the recorded data:
# Entry sequence, Target or system, pKd
measured = [
    ("ETMETLLLL", "HLA-A*68:02", 7.76),
    ("EVSETQHGTI", "HLA-A*68:02", 6.71),
    ("SASSMINGVV", "HLA-A*68:02", 6.78),
]

API: the following record is the query input.
The reported pKd of the sequence `YAMCTNTFV` was 8.82

* * *

Target or system: HLA-B*40:01
Test protocol: IEDB peptide-MHC binding, purified MHC/direct/fluorescence; filed as Kd, often an IC50 or EC50 that approximates it; bounds were set here for any values at or beyond the usual limits of such assays
Condition context: source organism: Marburg virus - Musoke, Kenya, 1980
Assay metric: Kd

Item: `KLDFIRNTK` | Kd: ≥ 20 µM

* * *

Target or system: HLA-A*30:01
Test protocol: IEDB peptide-MHC binding, purified MHC/competitive/radioactivity; filed as Kd, often an IC50 or EC50 that approximates it; bounds were set here for any values at or beyond the usual limits of such assays
Condition context: source organism: Mammarenavirus juninense
Assay metric: pKd
Give only the number. pKd is defined as minus log10 of concentration in molar units.

Sure, the documented pKd for `SVIGTFVAEF` is 5.62

* * *

// reported Kd per item
Target or system: HLA-A*33:01
Test protocol: IEDB peptide-MHC binding, purified MHC/competitive/radioactivity; filed as Kd, often an IC50 or EC50 that approximates it; bounds were set here for any values at or beyond the usual limits of such assays
Condition context: source organism: Vaccinia virus WR
Only the number, expressed in µM, is required.

See these solved cases before continuing.
# Entry sequence, Unit annotation, Kd
measured = [
    ("YITIQDRPR", "µM", 0.187),
    ("DARYCSEFIR", "µM", 0.0243),
    ("QTVDFTDCR", "µM", 5.81),
]

Hey, HLA-A*33:01 data for `QITTDDLVK` : Kd came out at 3.75

Note to self: Kd of `SVLCVKKFYK` with HLA-A*33:01 was 0.0122

The sequence `TISKDNLER` , tested on HLA-A*33:01, showed Kd of 0.49

Measured Kd for this entry `RLSILSKDK` on HLA-A*33:01: 12.9

Measured on HLA-A*33:01, `STDNAVYQCR` has a documented Kd of 2.89

The sequence `LLIWAYLSKK` , tested on HLA-A*33:01, showed Kd of 2.34

Measured on HLA-A*33:01, `PADCFLVKLK` has a documented Kd of 17.1

Kd value, target or system HLA-A*33:01, for `NSQIFNIISY` : 10.6

// sequence `SMGFKVTTRR` , assay HLA-A*33:01, Kd value: 0.747

Observed Kd on HLA-A*33:01, entry `KSISSMTIR` , equals 7.71

// returns Kd for `IFMRDWNSK` with HLA-A*33:01; value = 8.94

* * *

Target or system: HLA-B*15:01
Test protocol: IEDB peptide-MHC binding, purified MHC/competitive/fluorescence; filed as Kd, often an IC50 or EC50 that approximates it; bounds were set here for any values at or beyond the usual limits of such assays
Condition context: source organism: Pan troglodytes
pKd: −log10 of the molar value.
Assay metric: pKd

// field: pKd; key: `KVRDRNFQL` ; value = ≤ 4.70

* * *

In this section we review reported Kd values for a set of sequences.
Target or system: HLA-B*08:01
Test protocol: IEDB peptide-MHC binding, purified MHC/competitive/radioactivity; filed as Kd, often an IC50 or EC50 that approximates it; bounds were set here for any values at or beyond the usual limits of such assays
Condition context: source organism: Vaccinia virus WR
Numeric only. Scale: nM

# Entry sequence, Unit annotation, Kd
rows = [
    ("NKKRFFSDV", "nM", 8720),
    ("SEKMRRERA", "nM", 169),
    ("TSNWTGNYF", "nM", 15600),
]

Form field Kd for item `NNSWKFNSE` on HLA-B*08:01: 129

HLA-B*08:01 assay, sequence `SSTSRFVMF` , recorded Kd = 1100

HLA-B*08:01 data for `YSFSMFMSL` ; its Kd: 146

Kd of `EARVEFGPL` , assay on HLA-B*08:01, is 177

Entry `MQSLKFNRA` , tested on HLA-B*08:01, has a reported Kd of 307

# lookup: `LFMSHVKSV` on HLA-B*08:01, Kd = 3.07
